# System: S. aureus ATCC 33593
# stated-conditions: LYM broth, 300 mM (NaCl); 16 h, 37 °C
Exercise: for every item that follows, state its recorded MIC.
Give bare numbers, in µg/mL.

Example substances with recorded MIC:
Ac-KKKWRKWLKWLAK-NH2 [Peptide W5K12]
12.5
Ac-KWRKWLKWLAKKK-NH2 [Peptide W5K01]
50

Attention now shifts to the item below.
Give its MIC value. Item: Ac-KKWRKWLKWLAKK-NH2 [W5K/A9W]
12.5

----------
# Test system: S. aureus ATCC 25923
# stated-conditions: LYM broth, 300 mM (NaCl); 16 h, 37 °C
Exercise: for every item that follows, state its recorded MIC.

Example substances with recorded MIC:
Ac-AKKKKWRKWLKWL-NH2 [Peptide W5K10]
25 µg/mL
Ac-LAKKKKWRKWLKW-NH2 [Peptide W5K09]
>50 µg/mL
Ac-KWLAKKKKWRKWL-NH2 [Peptide W5K07]
>50 µg/mL
Ac-WLAKKKKWRKWLK-NH2 [Peptide W5K08]
>50 µg/mL
Ac-KKKWRKWLKWLAK-NH2 [Peptide W5K12]
12.5 µg/mL

Report MIC for every entry below.
1. Ac-WLKWLAKKKKWRK-NH2 [Peptide W5K05]
2. Ac-KWLKWLAKKKKWR-NH2 [Peptide W5K04]

1: 50 µg/mL; 2: >50 µg/mL

Report MIC for every entry below.
1. Ac-KKKKWRKWLKWLA-NH2 [Peptide W5K11]
2. Ac-WRKWLKWLAKKKK-NH2 [Peptide W5K02]
3. Ac-KKWRKWLKWLAKK-NH2 [W5K/A9W]
4. Ac-RKWLKWLAKKKKW-NH2 [Peptide W5K03]
5. Ac-KWRKWLKWLAKKK-NH2 [Peptide W5K01]
6. Ac-LKWLAKKKKWRKW-NH2 [Peptide W5K06]

1: 6.25 µg/mL; 2: >50 µg/mL; 3: 6.25 µg/mL; 4: >50 µg/mL; 5: >50 µg/mL; 6: >50 µg/mL

----------
Exercise: for every item that follows, state its recorded MIC.
# Tested on: S. aureus ATCC 33591
# stated-conditions: MH broth; 5 × 10^5 CFU/mL, 16 h, 37 °C; repeated three times
Answers are plain numbers, in µg/mL.

Example substances with recorded MIC:
Ac-KKKWRKWLKWLAK-NH2 [Peptide W5K12]
6.25
Ac-KWRKWLKWLAKKK-NH2 [Peptide W5K01]
50
Ac-WRKWLKWLAKKKK-NH2 [Peptide W5K02]
25

Give its MIC value. Item: Ac-WLKWLAKKKKWRK-NH2 [Peptide W5K05]
50

----------
# Test system: A. baumannii 14B0091 (Acinetobacter sp., BCRC number 14B0091)
# stated-conditions: LYM broth, 0 mM NaCl; 16 h, 37 °C
recorded-endpoint: MIC (µg/mL)
One number for each entry, in µg/mL.

Example substances with recorded MIC:
Ac-AKKKKWRKWLKWL-NH2 [Peptide W5K10]
1.56
Ac-KWRKWLKWLAKKK-NH2 [Peptide W5K01]
1.56
Ac-WRKWLKWLAKKKK-NH2 [Peptide W5K02]
1.56
Ac-KKWRKWLKWLAKK-NH2 [W5K/A9W]
1.56
Ac-WLKWLAKKKKWRK-NH2 [Peptide W5K05]
1.56

Report MIC for every entry below.
1. Ac-RKWLKWLAKKKKW-NH2 [Peptide W5K03]
2. Ac-LAKKKKWRKWLKW-NH2 [Peptide W5K09]
3. Ac-KKKWRKWLKWLAK-NH2 [Peptide W5K12]
4. Ac-LKWLAKKKKWRKW-NH2 [Peptide W5K06]

[1.56, 1.56, 1.56, 3.13]

Values were extracted from paper PMC12649549.
